Below: a set of entries, each annotated with reported composite z-score.
Assay: binders of probe aFGF2 on microarray, primary screen, stem cell growth factor project, biochemical, small-molecule microarray, fluorescence 635/667 (AID 1067);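 also: measures binding of biotinylated aFGF2 protein to printed compounds on slides; z-score merges feature fluorescence and signal-to-noise across triplicate slides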
Conditions: higher = more signal
API note: the answer field is a bare number with no unit suffix.

Examples with their reported composite z-score follow.
C=C(/C(=C/C[C@@H](OC(=O)c1ccncc1)c1ccccc1OCCO)c1cc(C(=O)OC)ccc1OC)C(C)C
-0.0352
COc1ccccc1CN1C(=O)c2ccccc2[C@](Cc2ccccc2I)(C(=O)NC(C)C)[C@@H]1c1ccc(CO)cc1
-0.0296
O=C1O[C@@H](c2ccccc2)[C@@H](c2ccccc2)N2[C@@H](c3ccc(O)cc3)[C@]3(C(=O)Nc4ccc(C#CCCO)cc43)[C@@H](C(=O)NC[C@H](O)c3ccccc3)[C@H]12
-0.206
C=CCN1Cc2ccccc2C[C@@]2(N=C(c3ccc(OCCCO)cc3)O[C@H]2c2ccccc2)C1=O
0.0109
CC=CC(O)C1C=CC2C(=O)N(c3ccccc3)C(=O)C2N1Nc1ccccc1 (configuration not stated)
-0.0114

Any idea what its composite z-score is? The compound is CCCN1C(=O)[C@]2(Cc3ccccc3)N=C(c3ccc(OCCCO)cc3)O[C@@H]2c2ccccc21
-0.0226

Any idea what its composite z-score is? The compound is O=C(CCCCCCC(=O)Nc1ccccc1)N/N=C/c1ccccc1
-0.141

Any idea what its composite z-score is? The compound is CCOC(=CC(=O)OC)CC(O)c1cccc(Cl)c1 (configuration not stated)
-0.0504

Any idea what its composite z-score is? The compound is CCCCN1CC=CC23O[C@@H]4C=CCOC(=O)[C@@H]4[C@H]2C(=O)N(C(C)CO)[C@@H]3C1=O (some centres not stated)
-0.187

Any idea what its composite z-score is? The compound is O=C1C[C@@](C(=O)NCC(F)(F)F)(c2ccc([N+](=O)[O-])cc2)[C@@H](c2ccc(CO)cc2)N1C1CCCCC1
0.0216

Any idea what its composite z-score is? The compound is C[C@@H]1ON(c2ccc(C(=O)OC(C)(C)C)cc2)[C@H](c2ccc(Br)cc2)[C@H]1C(=O)N1C(=O)OC[C@H]1Cc1ccccc1
0.0333

Any idea what its composite z-score is? The compound is NC(N)=NCc1cn(CCc2c[nH]c3ccccc23)nn1
-0.121

Any idea what its composite z-score is? The compound is COc1cc(CO)cc(I)c1O[C@H]1C=C(C(=O)NCCO)C[C@@H](NCc2ccccc2F)[C@@H]1O
0.0232

Any idea what its composite z-score is? The compound is Cc1ccc(S[C@]2(C(=O)NC(C)C)CC(=O)N(Cc3ccccc3C(F)(F)F)[C@@H]2c2ccc(CO)cc2I)cc1
-0.0924

Any idea what its composite z-score is? The compound is CN1C(=O)C2C=CC(C(O)Cc3ccccc3)N(N(c3ccccc3)c3ccccc3)C2C1=O (configuration not stated)
0.0295

Any idea what its composite z-score is? The compound is CCOC(=O)C[C@H]1[C@H](OC(=O)c2ccc(-c3ccccc3)cc2)[C@@H](NC(=O)c2ccc3ccccc3n2)c2cc(OCCCO)ccc2N1C(=O)c1ccccc1
-0.0996

Any idea what its composite z-score is? The compound is O=C1NC(=O)C2C1C=CC(C(O)c1c(F)cccc1Cl)N2Nc1ccccn1 (configuration not stated)
0.0182
